Test: Selectivity ratio of EC50 for rat H9c2 cells to EC50 for human OCI-AML3 cells
Type: toxicity
Details: H9c2 cells versus OCI-AML3 cells, read-out: Ratio EC50
assay.metric: selectivity ratio

(Q) Provide measured selectivity ratio value, entry: `CN(C)[C@@H]1CC[C@@]2(C)[C@@H](CC[C@@H]3[C@@H]2CC[C@]2(C)C(c4cccc5cnccc45)=CC[C@@H]32)C1`
(A) 3 to 4

====

Experiment: Selectivity ratio of EC50 for rat H9c2 cells to EC50 for human MOLM13 cells
Assay type: toxicity
Settings: H9c2 cells versus MOLM13 cells, read-out: Ratio EC50
assay.metric: selectivity ratio

(Q) Give the reported selectivity ratio for this molecule. `CN(C)[C@@H]1CC[C@@]2(C)[C@@H](CC[C@@H]3[C@@H]2CC[C@]2(C)C(c4cccc5cnccc45)=CC[C@@H]32)C1`
(A) 3 to 4
